Source listed as PubChem BioAssay AID602421.

target: AddAB helicase-nuclease (Helicobacter pylori 26695); experiment: inhibition of H. pylori AddAB nuclease activity – biochemical, radioactivity, purified enzyme, IC50, late-stage follow-up (AID 602421); settings: radioactive DNA degradation
Active and inactive are the calls of the source. No rule for the calls is given here.
Assign a class; possible classes are active, inactive

Reference set (3 entries):
>  <Structure Smiles>
CCn1cc(C(=O)O)c(=O)c2cnc(N3CCN(C(=S)NCc4ccccc4)CC3)nc21

>  <Category Label>
inactive

$$$$
>  <Structure Smiles>
Cc1ccc(C(=O)Nc2sc3c(c2C#N)CCCCC3)o1

>  <Category Label>
inactive

$$$$
>  <Structure Smiles>
Cc1cccnc1NC(=O)c1ccc([N+](=O)[O-])o1

>  <Category Label>
inactive

$$$$

Please look at the following compound next.
Query block: GET /call?item= `O=C(Nc1cccc(NC(=O)c2ccccc2Cl)c1)c1ccc([N+](=O)[O-])o1` returns the recorded outcome of this test.
Result block: inactive

###

Reported IC50 values follow for various molecules
biological target: AddAB helicase-nuclease (Helicobacter pylori 26695); test: inhibition of H. pylori AddAB nuclease activity – biochemical, radioactivity, purified enzyme, IC50, late-stage follow-up (AID 602421); details: radioactive DNA degradation
Calls of active or inactive are those of the source. The rule behind the calls is not given here.

Query block: Item under review: `CNC(=O)c1c(NC(=O)c2nc(SCc3ccccc3)ncc2Cl)sc2c1CCCC2` . Reported IC50?
Result block: 55 µM

Query block: Item under review: `Cc1ccc2nc(/C(C#N)=C\c3ccc([N+](=O)[O-])o3)[nH]c2c1` . Reported IC50?
Result block: > 166 µM (inactive)

Query block: Item under review: `Cc1sc(NC(=O)c2ccc(Br)o2)c(C#N)c1C` . Reported IC50?
Result block: 25 µM

Query block: Item under review: `N#Cc1c(NC(=O)c2ccco2)sc2c1CCC2` . Reported IC50?
Result block: 36 µM

Query block: Item under review: `N#Cc1c(NC(=O)c2ccc([N+](=O)[O-])o2)sc2c1CCCC2` . Reported IC50?
Result block: > 100 µM (inactive)

###

target: AddAB helicase-nuclease (Helicobacter pylori 26695); experiment: inhibition of H. pylori AddAB nuclease activity – biochemical, radioactivity, purified enzyme, IC50, late-stage follow-up (AID 602421); conditions: radioactive DNA degradation
Calls of active or inactive are those of the source. No rule for the calls is given here.
Experimental Endpoint: IC50

These solved cases illustrate the format of a correct answer.
>  <Structure Smiles>
CCn1cc(C(=O)O)c(=O)c2cnc(N3CCN(C(=S)Nc4cccc(C(F)(F)F)c4)CC3)nc21

>  <Tested On>
AddAB helicase-nuclease (Helicobacter pylori 26695)

>  <IC50>
27 µM

$$$$
>  <Structure Smiles>
N#Cc1c(NC(=O)c2ccc(-c3ccccc3[N+](=O)[O-])o2)sc2c1CCCC2

>  <Tested On>
AddAB helicase-nuclease (Helicobacter pylori 26695)

>  <IC50>
> 100 µM (inactive)

$$$$
>  <Structure Smiles>
CCn1cc(C(=O)O)c(=O)c2cc(F)c(N3CCN(C(=S)Nc4cccc(C(F)(F)F)c4)CC3)cc21

>  <Tested On>
AddAB helicase-nuclease (Helicobacter pylori 26695)

>  <IC50>
11 µM

$$$$
>  <Structure Smiles>
C=CCn1c(Sc2ncc([N+](=O)[O-])s2)n[nH]c1=O

>  <Tested On>
AddAB helicase-nuclease (Helicobacter pylori 26695)

>  <IC50>
93 µM

$$$$

Query block: Item under review: `N#Cc1c(NC(=O)c2cnccn2)sc2c1CCCC2` . Reported IC50?
Result block: 17 µM

Query block: Item under review: `N#Cc1c(NC(=O)c2cccc(F)c2)sc2c1CCCC2` . Reported IC50?
Result block: > 100 µM (inactive)

Query block: Item under review: `N#Cc1c(NC(=O)c2ccccc2)sc2c1CCC2` . Reported IC50?
Result block: > 100 µM (inactive)

Query block: Item under review: `N#Cc1c(NC(=O)c2ccccc2C(=O)O)sc2c1CCCC2` . Reported IC50?
Result block: > 100 µM (inactive)
